# system: γ-GTP (human serum) (Homo sapiens, UniProt P19440)
# Construct: As samples, there were used human serum; from tissue; host or cells: human serum
# Sequence (P19440 1-380 limits assumed): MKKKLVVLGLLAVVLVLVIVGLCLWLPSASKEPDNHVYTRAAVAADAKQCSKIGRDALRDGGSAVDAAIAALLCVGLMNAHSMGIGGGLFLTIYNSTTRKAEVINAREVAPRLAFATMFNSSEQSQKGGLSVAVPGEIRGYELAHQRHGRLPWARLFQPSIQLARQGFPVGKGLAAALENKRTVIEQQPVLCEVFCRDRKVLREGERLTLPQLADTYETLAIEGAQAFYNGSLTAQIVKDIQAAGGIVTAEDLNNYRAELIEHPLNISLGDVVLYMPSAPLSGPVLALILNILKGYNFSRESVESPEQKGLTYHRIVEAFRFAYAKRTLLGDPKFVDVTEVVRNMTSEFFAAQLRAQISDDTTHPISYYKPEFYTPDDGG
# Sequence (P19440 381-569 limits assumed): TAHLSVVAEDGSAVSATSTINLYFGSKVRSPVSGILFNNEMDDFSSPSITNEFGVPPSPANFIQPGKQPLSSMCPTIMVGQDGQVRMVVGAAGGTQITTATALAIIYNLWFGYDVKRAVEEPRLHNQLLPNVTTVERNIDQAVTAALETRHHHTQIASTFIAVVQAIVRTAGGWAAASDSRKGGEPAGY
# assay-name: Measurement of γ-GTP activity with the substrate, human serum sample (rate assay, 410 nm)
# Assay type: biochemical
# protocol-conditions: relative to Comparative Example 1 taken as 100, 37° C., 5 min
recorded-metric: relative γ-GTP activity value, human serum
Answer with a number only.

Exercise: Fill blank: measured relative γ-GTP activity value, human serum of the molecule N[C@@H](CCC(=O)Nc1ccc([N+](=O)[O-])c(C(=O)O)c1)C(=O)O [γ-L-glutamyl-3-carboxy-4-nitroanilide, reference compound] is ____.
Key: 103

Exercise: Could you share which relative γ-GTP activity value, human serum value was measured for N[C@@H](CCC(=O)Nc1ccc([N+](=O)[O-])c(CO)c1)C(=O)O ?
Key: 148

Exercise: # relative γ-GTP activity value, human serum lookup, item N[C@@H](CCC(=O)Nc1ccc([N+](=O)[O-])cc1)C(=O)O [γ-L-glutamyl-p-nitroanilide, reference compound]
Key: 100

Exercise: Fill in: relative γ-GTP activity value, human serum of N[C@@H](CCC(=O)Nc1ccc([N+](=O)[O-])c(CCO)c1)C(=O)O is ___
Key: 95

Numbers sourced from patent US4851572A.
